- System: EKVX NSCLC
- EXPERIMENTAL PROTOCOL: NCI-60 one-dose screen, 48 h (100 = growth as untreated, 0 = no growth, -100 = all killed)
- MEASUREMENT CONTEXT: 10 µM unless noted
The panel holds about 83,000 compounds, 20% with a hit somewhere; the sample as a whole holds those more often.
Values of growth greater than or equal to 40% map to Satisfied; values below map to Not satisfied.

{"columns": ["ENTRY SMILES", "ASSIGNED CATEGORY"],
 "data": [
  ["COC1=CC(c2ccc[nH]2)=N/C1=C\\c1[nH]c(C)c(C(=O)OC(C)C)c1C", "Not satisfied"]
]}

Does the molecule CCN(CC)c1ccc(\C=N/N=C(N)/C(N)=N\N=C/c2ccc(N(CC)CC)cc2)cc1 have recorded growth that is 40% or more?
Satisfied

Does the molecule O=C(Nc1ccc(Oc2cccc(Cl)c2)c(Cl)c1)c1cnccn1 have recorded growth that is 40% or more?
Satisfied

Does the molecule O=C1C(=O)N(Cc2ccc(-c3ccccc3)cc2)c2ccc(OC(F)(F)F)cc21 have recorded growth that is 40% or more?
Satisfied

Does the molecule O=C1c2ccc3c4c5ccc(c24)C(=O)N1CCCOCCCCOCCCNCc1ccc(cc1)CNCCCOCCCCOCCCN(C3=O)C5=O have recorded growth that is 40% or more?
Not satisfied

Does the molecule O=C(/C=C/c1ccco1)Nc1ncc(Cc2cccc(C(F)(F)F)c2)s1 have recorded growth that is 40% or more?
Not satisfied

Does the molecule O=C(O)CCCN1C(=O)/C(=C/c2cn(-c3ccccc3)nc2-c2ccc([N+](=O)[O-])cc2)SC1=S have recorded growth that is 40% or more?
Satisfied

Does the molecule C#Cc1c2c(c(OC)c3c1OCO3)[C@H]([C@H]1OC(=O)c3c1ccc(OC)c3OC)N(C)CC2 have recorded growth that is 40% or more?
Satisfied

====

- Test system: OVCAR-3 ovarian
- EXPERIMENTAL PROTOCOL: NCI-60 one-dose screen, 48 h (100 = growth as untreated, 0 = no growth, -100 = all killed)
- MEASUREMENT CONTEXT: 10 µM unless noted
The panel holds about 83,000 compounds, 20% with a hit somewhere; the sample as a whole holds those more often.
Values of growth greater than or equal to 90% map to Yes; values below map to No.

{"columns": ["COMPOUND", "ASSIGNED CATEGORY"],
 "data": [
  ["CC(C)=CCCC(C)c1ccc(C)c2c1OCN(CCCCCO)C2 (stereo unspecified)", "Yes"],
  ["Cc1ccc(Nc2cc(N)nc(N)n2)cc1Cl", "Yes"],
  ["Cc1sc2nc(NCCc3c[nH]c4ccc(Cl)cc34)[nH]c(=O)c2c1C", "No"]
]}

Does the compound O=C1C(Cl)=C(Nc2ccc(S(=O)(=O)N3CCOCC3)cc2)C(=O)c2ccccc21 have recorded growth that is 90% or more?
No

Does the compound CC(=O)N1N=C(c2ccc(C(F)(F)F)c(F)c2)CC1c1[nH]c(C)c(C(=O)NCC(F)(F)F)c1C (stereo unspecified) have recorded growth that is 90% or more?
No

Does the compound COc1ccc(C(=O)Nc2cccc(-c3cc(=O)c4c(OC)c(OC)c(OC)cc4o3)c2)cc1 have recorded growth that is 90% or more?
No
